system.under.test: M4 muscarinic receptor (Homo sapiens)
Construct: expressed in transfected cells; host or cells: CHO (M4-CHO)
Sequence (P08173 whole entry): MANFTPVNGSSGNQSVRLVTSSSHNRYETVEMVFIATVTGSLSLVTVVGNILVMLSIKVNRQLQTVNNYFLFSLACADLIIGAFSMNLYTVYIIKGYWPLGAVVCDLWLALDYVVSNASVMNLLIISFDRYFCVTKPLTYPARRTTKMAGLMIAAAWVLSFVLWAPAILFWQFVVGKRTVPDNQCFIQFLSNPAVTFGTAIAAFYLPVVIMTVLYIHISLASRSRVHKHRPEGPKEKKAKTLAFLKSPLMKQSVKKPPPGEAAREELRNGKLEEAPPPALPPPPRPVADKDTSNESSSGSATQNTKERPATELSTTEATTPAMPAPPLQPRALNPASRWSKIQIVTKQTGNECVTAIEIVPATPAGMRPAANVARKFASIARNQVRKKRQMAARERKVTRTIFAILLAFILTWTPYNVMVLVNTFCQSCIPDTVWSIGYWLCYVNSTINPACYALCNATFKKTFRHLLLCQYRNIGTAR
assay.procedure: Functional mobilization of intracellular calcium (FLIPR), M4-CHO cells
Assay type: cell-based
condition.label: 100% efficacy = maximum response obtained with the Carbachol control

{"molecule": "COc1ccc(F)cc1C1(F)CCN(C[C@@H]2C[C@H]3C=C[C@H]2C3)CC1", "system.under.test": "M4 muscarinic receptor (Homo sapiens)", "Emax": "25 to 100%"}
{"molecule": "COc1ccccc1C1CCN(C2CCC(C3CCCCC3)CC2)CC1 (centres unmarked)", "system.under.test": "M4 muscarinic receptor (Homo sapiens)", "Emax": "< 25%"}
{"molecule": "CCC1(O)CCC(N2CCC(c3cc(Cl)ccc3OC)CC2)CC1 (centres unmarked)", "system.under.test": "M4 muscarinic receptor (Homo sapiens)", "Emax": "25 to 100%"}
{"molecule": "COc1ccc(C#N)cc1C1CCN([C@H]2C[C@H]3CC[C@H]2C3)CC1", "system.under.test": "M4 muscarinic receptor (Homo sapiens)", "Emax": "25 to 100%"}
{"molecule": "CC(=O)COc1ccccc1C1CCN(C2CC3CC[C@H]2C3)CC1 (stereo in doubt)", "system.under.test": "M4 muscarinic receptor (Homo sapiens)", "Emax": "25 to 100%"}
{"molecule": "CNC(=O)c1ccc(-c2ccc(OC)c(C3CCN(C4CC5CCC(C5)C4)CC3)c2)cc1 (centres unmarked)", "system.under.test": "M4 muscarinic receptor (Homo sapiens)", "Emax": "25 to 100%"}
{"molecule": "CCOC(=O)N1CCC(N2CCC(c3ccccc3OC)CC2)CC1", "system.under.test": "M4 muscarinic receptor (Homo sapiens)", "Emax": "> 100%"}
{"molecule": "COc1ccc(-c2ccc(C(=O)N3CCCCC3)cc2)cc1C1CCN([C@H]2C[C@H]3CC[C@H]2C3)CC1", "system.under.test": "M4 muscarinic receptor (Homo sapiens)", "Emax": "< 25%"}

* * *

system.under.test: M1 muscarinic receptor (Homo sapiens)
Construct: expressed in transfected cells; host or cells: CHO (M1-CHO)
Sequence (P11229 whole entry): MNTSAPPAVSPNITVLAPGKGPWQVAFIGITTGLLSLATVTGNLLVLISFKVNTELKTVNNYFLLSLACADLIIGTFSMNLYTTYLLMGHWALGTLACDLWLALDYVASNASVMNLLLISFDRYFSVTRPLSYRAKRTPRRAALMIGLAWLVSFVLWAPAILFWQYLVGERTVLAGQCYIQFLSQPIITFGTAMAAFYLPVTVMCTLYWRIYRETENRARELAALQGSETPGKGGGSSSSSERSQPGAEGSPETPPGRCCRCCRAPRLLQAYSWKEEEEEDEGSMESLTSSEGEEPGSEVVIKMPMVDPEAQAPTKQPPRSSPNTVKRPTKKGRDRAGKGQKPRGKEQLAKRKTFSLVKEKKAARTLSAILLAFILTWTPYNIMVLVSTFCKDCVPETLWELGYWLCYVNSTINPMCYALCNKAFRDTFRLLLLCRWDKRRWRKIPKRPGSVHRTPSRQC
assay.procedure: Functional mobilization of intracellular calcium (FLIPR), M1-CHO cells
Format: cell-based
condition.label: 100% efficacy is the maximum response obtained with the Carbachol control
The following compounds are shown together with reported Emax values.
recorded.metric: Emax

{"compound": "COc1ccc(-c2ccc(CC#N)cc2)cc1C1CCN(C2CCCCC2)CC1", "system.under.test": "M1 muscarinic receptor (Homo sapiens)", "measured.result": "< 25%"}
{"compound": "C=Cc1ccc(OC)c(C2CCN([C@@H]3C[C@H]4CC[C@H]3C4)CC2)c1", "system.under.test": "M1 muscarinic receptor (Homo sapiens)", "measured.result": "25 to 100%"}
{"compound": "CCC(C)Oc1ccccc1C1CCN([C@H]2C[C@H]3CC[C@H]2C3)CC1 (stereo partly drawn)", "system.under.test": "M1 muscarinic receptor (Homo sapiens)", "measured.result": "25 to 100%"}
{"compound": "OC1(c2cc(Cl)cc(Cl)c2)CCN(C2C[C@H]3CC[C@H]2C3)CC1 (stereo partly drawn)", "system.under.test": "M1 muscarinic receptor (Homo sapiens)", "measured.result": "< 25%"}
{"compound": "O=C(NCc1cccc(C2CCN(C3C[C@H]4CC[C@H]3C4)CC2)c1)C1CC1 (stereo partly drawn)", "system.under.test": "M1 muscarinic receptor (Homo sapiens)", "measured.result": "< 25%"}
{"compound": "COc1ccccc1C1CCN(C2CCCC(O)CCC2)CC1 (stereo not drawn)", "system.under.test": "M1 muscarinic receptor (Homo sapiens)", "measured.result": "< 25%"}
